target: T1, Human Tau 2N4R, wild type, recombinant full length (human, UniProt P10636 2-758); assay: SPR BIAcore, mAb captured by anti-human IgG, Tau flowed, 1:1 Langmuir
T1 construct: Full length 2N4R isoform; monomer in SPR and ELISA; heparin-induced aggregates or seeds in the functional assays; also called Tau441; Tau-441
T1 sequence (P10636 other isoform, or with tags, fused parts or gaps limits assumed): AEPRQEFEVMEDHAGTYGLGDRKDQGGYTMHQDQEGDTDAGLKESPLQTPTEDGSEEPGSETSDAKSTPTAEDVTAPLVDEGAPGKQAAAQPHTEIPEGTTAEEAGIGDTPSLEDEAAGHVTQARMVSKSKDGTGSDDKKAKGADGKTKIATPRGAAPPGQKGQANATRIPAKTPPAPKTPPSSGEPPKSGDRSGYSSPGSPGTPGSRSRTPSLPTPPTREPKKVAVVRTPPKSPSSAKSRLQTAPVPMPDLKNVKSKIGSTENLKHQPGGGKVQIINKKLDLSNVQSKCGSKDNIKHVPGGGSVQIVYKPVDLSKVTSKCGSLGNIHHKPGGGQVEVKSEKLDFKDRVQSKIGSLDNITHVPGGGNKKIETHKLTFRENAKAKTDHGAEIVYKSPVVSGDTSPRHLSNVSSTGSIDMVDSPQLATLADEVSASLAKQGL
observable: kon
The number alone won't do; follow it with the unit.

Given the binder 7G6-HCzu10-LCzu6 (antibody, human IgG1, kappa, V domains shown, humanized, human IgG1 kappa) VH: QVQLVQSGAEVKKPGASVKVSCKASGYTFTTYWITWVRQAPGQGLEWMGDIYPGSSICNYAQKFQGRVTMTRDTSTSTVYMELSSLRSEDTAVYYCAREDGYDAWFAYWGQGTLVTVSS VL: DVVMTQSPLSLPVTLGQPASISCRSSQSILHSNGNTYLEWYQQRPGQSPRLLISKVSNRFSGVPDRFSGSGSGTDFTLKISRVEAEDVGVYYCFQGSHVPFTFGQGTKLEIKR , write its reported kon. 1.98e+06 M⁻¹ s⁻¹

Identify measured kon corresponding to 7G6-HCzu5-LCzu6 (antibody, human IgG1, kappa, V domains shown, humanized, human IgG1 kappa) VH: QVQLVQSGAEVKKPGASVKVSCKASGYTFTTYWITWVRQAPGQGLEWMGDIYPGSSISNYNEKFKSRVTMTVDTSTSTAYMELSSLRSEDTAVYYCAREDGYDAWFAYWGQGTLVTVSS VL: DVVMTQSPLSLPVTLGQPASISCRSSQSILHSNGNTYLEWYQQRPGQSPRLLISKVSNRFSGVPDRFSGSGSGTDFTLKISRVEAEDVGVYYCFQGSHVPFTFGQGTKLEIKR 2.14e+06 M⁻¹ s⁻¹

Supply kon value. Item: 7G6-HCzu1-LCzu2 (antibody, human IgG1, kappa, V domains shown, humanized, human IgG1 kappa) VH: QVQLVQSGAEVKKPGASVKVSCKASGYTFTTYWITWVRQAPGQGLEWMGDIYPGSSICNYNEKFKSRVTMTRDTSTSTVYMELSSLRSEDTAVYYCAREDGYDAWFAYWGQGTLVTVSS VL: DVVMTQSPLSLPVTLGQPASISCRSSQSILHSNGNTYLEWYQQRPGQSPRLLICKVSNRFSGVPDRFSGSGSGTDFTLKISRVEAEDVGVYYCFQGSHVPFTFGQGTKLEIKR 2.2e+06 M⁻¹ s⁻¹

Origin of values: patent US20190112365A1
